# system-tested: ROCK I (Homo sapiens, UniProt Q13464)
# Sequence (Q13464 whole entry): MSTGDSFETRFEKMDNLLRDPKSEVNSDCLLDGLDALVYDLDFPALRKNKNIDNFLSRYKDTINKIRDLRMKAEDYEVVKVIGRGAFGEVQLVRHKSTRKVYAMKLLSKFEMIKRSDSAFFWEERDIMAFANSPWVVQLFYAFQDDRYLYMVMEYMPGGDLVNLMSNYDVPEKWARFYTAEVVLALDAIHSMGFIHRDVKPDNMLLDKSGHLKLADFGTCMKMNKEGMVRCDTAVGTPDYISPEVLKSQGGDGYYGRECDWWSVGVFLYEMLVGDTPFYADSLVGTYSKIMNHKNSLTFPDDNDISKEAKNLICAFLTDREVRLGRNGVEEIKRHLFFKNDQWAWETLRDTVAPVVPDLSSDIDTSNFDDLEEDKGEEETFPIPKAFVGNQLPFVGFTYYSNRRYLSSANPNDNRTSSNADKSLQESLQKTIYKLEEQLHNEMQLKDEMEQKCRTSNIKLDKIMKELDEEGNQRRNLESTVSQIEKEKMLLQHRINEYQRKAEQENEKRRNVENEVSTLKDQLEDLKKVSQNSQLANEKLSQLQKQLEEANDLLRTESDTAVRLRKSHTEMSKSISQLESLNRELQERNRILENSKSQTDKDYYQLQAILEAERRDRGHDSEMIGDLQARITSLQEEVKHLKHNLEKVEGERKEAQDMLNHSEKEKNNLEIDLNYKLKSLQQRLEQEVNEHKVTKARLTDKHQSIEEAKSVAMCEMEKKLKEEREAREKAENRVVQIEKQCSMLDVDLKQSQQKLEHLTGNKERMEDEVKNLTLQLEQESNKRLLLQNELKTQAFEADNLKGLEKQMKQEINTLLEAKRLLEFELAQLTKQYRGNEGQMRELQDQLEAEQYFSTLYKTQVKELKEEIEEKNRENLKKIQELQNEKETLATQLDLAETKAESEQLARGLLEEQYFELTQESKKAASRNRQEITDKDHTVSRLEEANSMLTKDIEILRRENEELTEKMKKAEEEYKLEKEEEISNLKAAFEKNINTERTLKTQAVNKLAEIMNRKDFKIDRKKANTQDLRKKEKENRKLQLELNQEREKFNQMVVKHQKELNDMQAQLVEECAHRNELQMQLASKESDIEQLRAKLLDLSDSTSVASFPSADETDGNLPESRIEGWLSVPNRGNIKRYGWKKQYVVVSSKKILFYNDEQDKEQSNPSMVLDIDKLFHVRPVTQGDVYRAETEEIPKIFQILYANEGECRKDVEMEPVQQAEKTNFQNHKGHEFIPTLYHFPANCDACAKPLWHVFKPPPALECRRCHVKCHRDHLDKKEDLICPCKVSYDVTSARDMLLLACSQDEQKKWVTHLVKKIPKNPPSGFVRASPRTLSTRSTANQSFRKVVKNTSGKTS
# method-notes: ROCK-I inhibition assay (radioactive enzyme assay, MBP substrate)
# Assay type: biochemical
# measurement-conditions: Table 6; enzyme inhibition data (Ki)
# Experimental: Compounds were screened for their ability to inhibit ROCK using a standard radioactive enzyme assay. Assays were carried out in a solution containing 100 mM HEPES (pH 7.5), 10 mM MgCl2, 25 mM NaCl, 2 mM DTT, and 1.5% DMSO. Final substrate concentrations in the assay were 13 μM [γ-^33P] […] 50 μl of Optima Gold scintillation fluid (Perkin Elmer) was added and the plates were counted on a Top Count (Perkin Elmer). […]
pKi: −log10 of the molar value.

{"compound": "CC(C)Oc1ccccc1-c1ccnc2[nH]ccc12 [compound 230]", "pKi": "< 5.40"}
{"compound": "O=C(CC(F)(F)F)N1CC[C@@H](Nc2c(Cl)cnc3[nH]ccc23)C1 [compound 189]", "pKi": "< 5.40"}
{"compound": "O=C(Nc1ccccc1)c1ccc(-c2ccnc3[nH]ccc23)cc1 [compound 271]", "pKi": "> 6.30"}
{"compound": "Cc1ccc(C(N)=O)cc1Nc1c(Cl)cnc2[nH]ccc12 [compound 160]", "pKi": "< 5.40"}
{"compound": "O=C(CNc1nc(-c2ccnc3[nH]ccc23)nc2ccccc12)NCC(F)(F)F [compound 196]", "pKi": "< 5.40"}
{"compound": "FC(F)(F)Oc1ccccc1-c1ccnc2[nH]ccc12 [compound 206]", "pKi": "< 5.40"}
{"compound": "CC(C)CNC(=O)c1cc(-c2ccnc3[nH]ccc23)c[nH]1 [compound 291]", "pKi": "> 6.30"}
{"compound": "O=C(c1cc(-c2ccnc3[nH]ccc23)c[nH]1)N1CCCC1C(F)(F)F (stereo not shown) [compound 374]", "pKi": "> 6.30"}
{"compound": "CCN(Cc1ccccn1)C(=O)c1cc(-c2ccnc3[nH]ccc23)c[nH]1 [compound 305]", "pKi": "5.30 to 6.30"}
{"compound": "CS(=O)(=O)N1CC[C@@H](Nc2c(Cl)cnc3[nH]ccc23)C1 [compound 184]", "pKi": "5.30 to 6.30"}
{"compound": "O=C(NCC(F)(F)F)[C@H]1CCCCN1c1ccnc(-c2ccnc3[nH]ccc23)n1 [compound 215]", "pKi": "< 5.40"}
{"compound": "Cc1csc(-c2c(Cl)cnc3[nH]ccc23)c1 [compound 144]", "pKi": "5.30 to 6.30"}
{"compound": "COc1ccc(OC)c(-c2ccnc3[nH]ccc23)c1 [compound 221]", "pKi": "5.30 to 6.30"}
{"compound": "O=C(NCC(F)(F)F)[C@H](CO)Nc1nc(-c2ccnc3[nH]ccc23)ncc1F [compound 204]", "pKi": "5.30 to 6.30"}
{"compound": "Cc1ccc(-c2ccnc3[nH]ccc23)c(C)c1 [compound 218]", "pKi": "> 6.30"}
{"compound": "Clc1ccc(-c2ccnc3[nH]ccc23)c(Cl)c1 [compound 210]", "pKi": "> 6.30"}
{"compound": "CCOc1cccc(-c2ccnc3[nH]ccc23)c1 [compound 249]", "pKi": "> 6.30"}
{"compound": "CCCNC(=O)c1ccc(-c2ccnc3[nH]ccc23)cc1 [compound 267]", "pKi": "> 6.30"}
{"compound": "O=S(=O)(c1ccccc1)n1cc(-c2c(Cl)cnc3[nH]ccc23)c2ccccc21 [compound 148]", "pKi": "< 5.40"}
